# Test system: MS2 coat protein
# PROTOCOL_SUMMARY: apparent Kd, MS2 coat protein; higher = weaker binding; RNA-MaP array
# CONDITION_CONTEXT: ligand present: flavin mononucleotide; designed as: OFF switch for flavin mononucleotide
EXPERIMENTAL_READOUT: apparent Kd (nM)

* CGGAAACAAGUAGGAUAUCACUUGAAUGUACAUGAGGAUCACCCAUGUUCCUUACGGCCGCGUUUUGAGAAGGACUAUUCAAAA | 15
* GGGAUGUUAGGAUAUGCUGGUUAAAAGAGAUUAAUACUCUAGCAGAAGGAACAUGAGGAUCACCCAUGUAGACA | 26.4
* UCGCUGUAAGGAUAUACUCCGUUACUGUGUUAUAACGGACCGUAGAAGGUACAUGAGGAUCACCCAUGUGAAGU | 17.8
* GACAUGAGGAUCACCCAUGUGGGAAAGGUGUACUCUUGCGACUAGGAUAUGUUGUGGUCCCAGAGACAGAAGGAGUGGCGACGU | 42

* * *

# key: entry, value: apparent Kd
# System: MS2 coat protein
# PROTOCOL_SUMMARY: apparent Kd, MS2 coat protein; higher = weaker binding; RNA-MaP array; tryptophan 2.4 mM where present
# CONDITION_CONTEXT: ligand present: tryptophan; designed as: OFF switch for tryptophan
EXPERIMENTAL_READOUT: apparent Kd (nM)

- UAUAUAUAUCACUAACUGUUGUGGACGUCUCGAGGACCGGUACGGCCGCCACUCGGGCGGCCUCACAUGAGGAUCACCCAUGUCC: 110
- GACGAUAUGAUACGUCAGCAAUCCUCGAAACGAGGACCGGUACGGCCGCCACUCGAGUGAUACACAUGAGGAUCACCCAUGUACC: 53.2
- AAUGGCCGUACCGGAAGGGUGAUCCUCAAACGAGGACCGGUACGGCCGCCACUCGAUAACAUGAGGAUCACCCAUGUAAUACAUA: 318
- UCGCCCGGGUCGGCCGCCACUGCGGUGAUGUGACAUGAGGAUCACCCAUGUUGUCAUGUGGCACAUAGGACCGGGACCCGGGCGA: 29.9
- UCGGGCAGAGCGGCCGCCACUGUAUGGCGUGCGGAUGACGGAACAUGAGGAUCACCCAUGUUGUUUAGGACCGGGCUUGCCGCGA: 13.2
- GUGUGGAGCUCGGCCGCCACUCAAACAUGAGGAUCACCCAUGUAAAACAUGAGGAUCACCCAUGUGAGGACCGGGAGAAACACGA: 404
- AUAUAUACAUGAGGAUCACCCAUGUUAUUACGAGGACCGGUACGGCCGCCACUCGAUAGAGUAGAAGUAAAUUGUAAUUCAUGUU: 12.6
- GUCCAAAGGUCGGCCGCCACUGUAGGAUGUGUUCUUUCACAUGAGGAUCACCCAUGUUGUUAUUAUAGGACCGGGAUUGUAGGAC: 18.5
- AGCACUGUGGCGGCCGCCACUACAUAUAGGGUGGUCAGGCCCAUAAUACAUGAGGAUCACCCAUGUAGGACCGGGCCUCAGUGCA: 14.8
- AUCAUAAUAGACUCGUUUGAUUAUAUGGAACGAGGACCGGUACGGCCGCCACUCGUGAUUUACAUGAGGAUCACCCAUGUUAGCA: 13.9
- GGAAAAGAAAGAAAAGAAAUCCCUCCCUCCCGAGGACCGGUACGGCCGCCACUCGCCCUCCCUCCCACAUGAGGAUCACCCAUGU: 23.4
- ACUACGAAGACGGCCGCCACUGAUAUUCGUAGAUCCAUCAAUACAUGAGGAUCACCCAUGUAUAUCAGGACCGGGUCAAGAUGGU: 47.2
